target-system: ZmADK3 D299A variant (Zea mays, UniProt A0A1D6E5Z5, D299A)
Sequence (A0A1D6E5Z5 entry or part of it D299A): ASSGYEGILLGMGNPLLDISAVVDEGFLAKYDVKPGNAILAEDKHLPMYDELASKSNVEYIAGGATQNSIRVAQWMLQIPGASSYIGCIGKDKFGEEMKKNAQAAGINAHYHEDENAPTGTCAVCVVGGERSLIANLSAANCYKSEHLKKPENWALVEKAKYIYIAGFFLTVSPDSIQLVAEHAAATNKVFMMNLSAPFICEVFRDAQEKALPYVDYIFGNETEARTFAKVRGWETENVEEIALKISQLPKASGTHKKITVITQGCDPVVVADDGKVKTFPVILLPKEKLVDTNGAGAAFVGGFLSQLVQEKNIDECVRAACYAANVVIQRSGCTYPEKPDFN
procedure-summary: Binding affinity by MST
pKd: −log10 of the molar value.
measured-property: pKd

> print(dat)
                                   compound  measured.property  numeric.result
1  Nc1ncnc2c1ncn2[C@@H]1O[C@H](CO)[C@@H](O)[C@H]1O [Ado, adenosine]                pKd            4.99

====

target-system: ZmADK3 N222A variant (Zea mays, UniProt A0A1D6E5Z5, N222A)
Sequence (A0A1D6E5Z5 entry or part of it N222A): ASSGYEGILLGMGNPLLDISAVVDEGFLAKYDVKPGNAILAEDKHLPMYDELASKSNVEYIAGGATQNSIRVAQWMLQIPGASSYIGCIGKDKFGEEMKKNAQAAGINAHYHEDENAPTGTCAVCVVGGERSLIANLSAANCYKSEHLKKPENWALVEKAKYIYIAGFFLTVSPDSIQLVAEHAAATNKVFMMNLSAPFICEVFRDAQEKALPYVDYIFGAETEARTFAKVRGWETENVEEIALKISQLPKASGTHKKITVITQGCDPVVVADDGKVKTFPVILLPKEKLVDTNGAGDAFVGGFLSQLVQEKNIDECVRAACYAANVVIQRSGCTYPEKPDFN
procedure-summary: Binding affinity by MST
particulars: N222A; MST; read-out: KD ATP
measured-property: Kd (mM)

> print(dat)
                           molecular.string                             target.system  units  numeric.result
1  Nc1ncnc2c1ncn2[C@@H]1O[C@H](COP(=O)(O)OP(=O)(O)OP(=O)(O)O)[C@@H](O)[C@H]1O  ZmADK3 N222A variant (Zea mays, UniProt A0A1D6E5Z5, N222A)     mM            20.7
